Test system: Saccharomyces cerevisiae
Assay: protein stability index of tFT-peptide fusion (C-terminal peptide) (PSI (0-1 scale)); higher = more stable (slower turnover);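 also: PSI is a weighted mean of sequencing reads over stability bins, variants kept only with over 10 reads, mCherry proximal and sfGFP distal, peptide attached via GGGS linker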
Protocol Conditions: genetic background: wild type; temperature: 30 C
Reported protein stability index by item:
Lab note: record the figure alone, no unit after it.

1) GGAAGGGRGGDG : 0.62
2) AALTPSCPLHLP : 0.713
3) LAGVTLPRPSSA : 0.663
4) LWDQFAVSCFGG : 0.745
5) LCSVWVGIVLLC : 0.165
6) ICSVGGFWLSCV : 0.596
7) CQVSEWIRYRFL : 0.417
8) AFTFLLCWLFGV : 0.467

IN: Given the sequence SRVVAGLWRGAV , what is its reported protein stability index?
OUT: 0.671

IN: What value of protein stability index has been reported for the following sequence? CWPLITTNCTVP
OUT: 0.708

---

Measured protein stability index accompanies every entry in the list below.
System: Saccharomyces cerevisiae
Assay: protein stability index of tFT-peptide fusion (C-terminal peptide) (PSI (0-1 scale)); higher = more stable (slower turnover)
Protocol Conditions: genetic background: wild type; temperature: 30 C
Please state the value as a number alone, without comment.

Recorded protein stability index, per entry:
1. ALNFFSLFMLFR : 0.398
2. SCSICLWVGHGC : 0.656
3. SFLVFLYFFMVF : 0.379

Here's the next entry for you.
IN: Bench note: what protein stability index did EPWTEQPKLDSR show?
OUT: 0.936

---

Each entry below carries its recorded protein stability index.
Test system: Saccharomyces cerevisiae
Assay: protein stability index of tFT-peptide fusion (C-terminal peptide) (PSI (0-1 scale)); higher = more stable (slower turnover)
Protocol Conditions: genetic background: wild type; temperature: 30 C
# respond with the number and nothing more

1) VFFVTSCWVFRG : 0.109
2) LCSCAVVICCSL : 0.309
3) AFVALCACVIFV : 0.202

IN: Requested field: protein stability index. Item: IFPSRSLLAASA
OUT: 0.339

IN: Query: protein stability index; subject: GSVCVVCWELVV
OUT: 0.293

IN: // lookup protein stability index for PCYRPPLPALLS
OUT: 0.43

IN: // protein stability index lookup, key: QERKILGRIKQA
OUT: 0.0987

IN: I'd like to know its protein stability index. The sequence in question is GKWFSWNAIWIR
OUT: 0.0762

IN: Name the recorded protein stability index for LVLFVVGGWVSL .
OUT: 0.311

---

Test system: Saccharomyces cerevisiae
Assay: protein stability index of tFT-peptide fusion (C-terminal peptide) (PSI (0-1 scale)); higher = more stable (slower turnover)
Protocol Conditions: genetic background: wild type; temperature: 30 C
The recorded protein stability index of each item maps onto one of these classes: group A = under 0.2, group B = from 0.2 up to 0.4, group C = 0.4 and over

1) HRHCVSSYQKVS : group B
2) SFLLGCCWLVLC : group A
3) RVHFLIVFLCRF : group B
4) GILPIYNIISRL : group C
5) VFRRWGLIGVIV : group B

IN: Form: Item = LRVPCPPCCVFV ; Class = ?
OUT: group B

IN: Class label required: PLSNLCRVLTFI
OUT: group B

IN: GET /class?item= VFGFSLLTLLVL
OUT: group B

IN: Consider LWFLDYVFICFL . To which protein stability index class does it belong?
OUT: group B

IN: In plain terms, what class is PVPPSLLHRPPF ?
OUT: group C

IN: Which band does YVFSPLSCWASV fall in?
OUT: group C

IN: Exercise: read the entry CWILLFGCVWVG and state which class it falls under.
OUT: group B

IN: Assign a category based on measured protein stability index for VRVLPFCWCIVR and give only the class name.
OUT: group A

IN: Each sequence maps to one class by protein stability index. Which class for GLCGVCLVRCVG ?
OUT: group B

IN: Which band does FMSAGVSWIFFV fall in?
OUT: group A

IN: Exam item: assign QCSVRLKEIQFS to the correct category.
OUT: group B

IN: The entry to classify is PCVPRLLPLQLS ; which class holds it?
OUT: group B

IN: Could you tell me which band GVVCCVVVGRMG belongs to?
OUT: group C

IN: Band of DSSRRKRLICMN ?
OUT: group B

---

System: Saccharomyces cerevisiae
Assay: protein stability index of tFT-peptide fusion (C-terminal peptide) (PSI (0-1 scale)); higher = more stable (slower turnover)
Protocol Conditions: genetic background: wild type; temperature: 30 C
The threshold is inclusive: protein stability index of exactly 0.7 counts as rule met; values below receive rule not met.

1) SQGLWRGVALTG : rule met
2) WKVFKGLSADVS : rule not met
3) WQSFRDKLIKGN : rule not met
4) PRRPPPPRARFP : rule met

Please turn your attention to the following entry.
IN: Assess whether reported protein stability index for VVRHWRRMTGDA sits at 0.7 or higher.
OUT: rule not met

---

Recorded protein stability index by entry
Tested on: Saccharomyces cerevisiae
Assay: protein stability index of tFT-peptide fusion (C-terminal peptide) (PSI (0-1 scale)); higher = more stable (slower turnover)
Protocol Conditions: genetic background: wild type; temperature: 30 C

Worked examples, 3 sequences total:
1) RKEQEDVHNKKK : 0.671
2) AGERQIRISING : 0.691
3) RSCVGGISVLVL : 0.466

IN: // protein stability index lookup, key: SLICPPFWPPSF
OUT: 0.691

IN: Can you share its protein stability index? I mean this sequence: FPWGRIFLRLRT
OUT: 0.487

IN: Would you mind telling me what protein stability index value was observed for YWEVYAGLSLWV ?
OUT: 0.63

IN: Recorded protein stability index for RGDVGVGHWVGG , please?
OUT: 0.708

IN: So what does the record say about protein stability index for KKGRTVEKKKGD ?
OUT: 0.694

IN: Param item = FQAERTGVTRAR ; retrieve measured protein stability index.
OUT: 0.666

IN: Entry under review: VSMPVGWRSWGG . Reported protein stability index?
OUT: 0.694

IN: Reported protein stability index for EKKKKKTAKQLK : what is it?
OUT: 0.671

IN: Give the measured protein stability index of LFFLFSPFSRLP .
OUT: 0.786

IN: protein stability index lookup needed for LLSGRDAACRGG , thanks.
OUT: 0.663

IN: // protein stability index lookup, key: RNTPFVCVRNGA
OUT: 0.726

IN: // returns reported protein stability index for input ASGGIIRWGLWM
OUT: 0.694

IN: Any idea what protein stability index was measured for LGWWWVWSWGRG ?
OUT: 0.668

IN: Could you tell me which protein stability index is on file for LDTTSRSRAKIS ?
OUT: 0.164

IN: Please give the measured protein stability index for this sequence: SRDSRSSRRAGA
OUT: 0.702

IN: Which protein stability index reading was recorded for the sequence GSYVPPVVLLYK ?
OUT: 0.647

---

System: Saccharomyces cerevisiae
Assay: protein stability index of tFT-peptide fusion (C-terminal peptide) (PSI (0-1 scale)); higher = more stable (slower turnover)
Protocol Conditions: genetic background: wild type; temperature: 30 C
Assay Readout: protein stability index
Would you mind answering with just the numeric figure?

The examples below pair each entry with its known result.
1. GRPYCISASPPH : 0.706
2. LPGKVGNAPFDQ : 0.691
3. RRPTVLRHQSPI : 0.737

IN: So what does the record say about protein stability index for FRRILGTIKLGR ?
OUT: 0.69

IN: Quick check: protein stability index of HPVPFSVASHLN ?
OUT: 0.645

IN: May I ask what protein stability index has been recorded for GPVLELWLGRSR ?
OUT: 0.775

IN: Record request: protein stability index value, item LRFRTNYFFSRV
OUT: 0.665

---

Test system: Saccharomyces cerevisiae
Assay: protein stability index of tFT-peptide fusion (C-terminal peptide) (PSI (0-1 scale)); higher = more stable (slower turnover)
Protocol Conditions: genetic background: wild type; temperature: 30 C
Assay Readout: protein stability index
I'd appreciate a reply containing only the number, no unit.

Known results for sequences:
1. VSIVLHSVPCGG : 0.392
2. WRCECELASACA : 0.361

IN: Looking for the measured protein stability index of YVCVVSVLLGLL , can you help?
OUT: 0.226

IN: State the recorded protein stability index for this entry: LDTTSRSRAKIS
OUT: 0.0968

IN: Entry IWVVIISDSRVG : reported protein stability index = ?
OUT: 0.342

---

System: Saccharomyces cerevisiae
Assay: protein stability index of tFT-peptide fusion (C-terminal peptide) (PSI (0-1 scale)); higher = more stable (slower turnover)
Protocol Conditions: genetic background: wild type; temperature: 30 C
Quick list: protein stability index per entry.

For orientation, consider the following solved cases.
1) GGVKVRGGMGPE : 0.684
2) PPPPPHTSPSPT : 0.744
3) GRSAVVMCFHAG : 0.697
4) PPPLPLLPSSPL : 0.685
5) VGGGCGVRVVVV : 0.684

IN: Suppose we examine the sequence PPSPCRTHRLYI ; what protein stability index value has been reported?
OUT: 0.629

IN: Give its protein stability index value. Item: GGRVFWGGSRSV
OUT: 0.651

IN: Can you share its protein stability index? I mean this sequence: ISSKREITGSVA
OUT: 0.694

IN: Quick one: protein stability index of KNNKKQRNRTGE ?
OUT: 0.669

IN: Fill in the blank: the reported protein stability index of AKLFSEGLQMHH is ____.
OUT: 0.729

Data credit: the supplement of paper PMC10724198
